Experiment: nuclear p53 accumulation, HPV+ cells – imaging, p53-positive nuclei imaging, 24 h, 48 h (AID 1508601)
Conditions: 24/48 h, measured here: cell number at 24 h, concentration not given here
Out of some 5,700 compounds screened, about 85 (1%) were called active. What follows is part of a selection rich in actives, with near analogues and random picks from the rest.
Here the recorded nuclei count, normalised is given for each entry.
Express the result in % but write the number alone.

[
  {
    "Compound": "C#C[C@]1(O)CCC2C3CCc4cc(O)ccc4C3CC[C@@]21C (stereo partly drawn)",
    "Endpoint unit": "%",
    "Result number": 85.4
  },
  {
    "Compound": "C[C@H]1O[C@@H](O[C@H]2[C@@H](O)C[C@H](O[C@H]3[C@@H](O)C[C@H](O[C@H]4CC[C@]5(C)C6CC[C@]7(C)[C@@H](C8=CC(=O)OC8)CC[C@]7(O)C6CC[C@@H]5C4)O[C@@H]3C)O[C@@H]2C)C[C@H](O)[C@@H]1O (stereo partly drawn)",
    "Endpoint unit": "%",
    "Result number": 49
  }
]

Form field nuclei count, normalised, entry "CCCCC[C@H](O)/C=C/[C@@H]1[C@@H](C/C=C\CCCC(=O)NCC)[C@@H](O)C[C@H]1O" : 106

====

Molecular target: Cellular tumor antigen p53 (Homo sapiens)
Test: nuclear p53 accumulation, HPV+ cells – imaging, p53-positive nuclei imaging, 24 h, 48 h (AID 1508601)
Conditions: 24/48 h, Library stock concentration: 400 uM, stronger effect = higher value
Screen size: about 5,700 compounds; about 85 (1%) were called active. This excerpt belongs to a sample that is enriched for actives.
Here the recorded p53-positive nuclei, normalised is given for each entry.
Express the result in % but write the number alone.

Form field p53-positive nuclei, normalised, entry "NC(=O)c1ccc(-c2nc(-c3ccc4c(c3)OCCO4)c(-c3ccccn3)[nH]2)cc1" : 0.159

Form field p53-positive nuclei, normalised, entry "O=C(O)C=Cc1ccc(Cn2ccnc2)cc1" : 0.0683

Form field p53-positive nuclei, normalised, entry "CN1CCN(c2ccc(Nc3c4ccccc4nc4ccccc34)cc2)CC1" : -0.231

Form field p53-positive nuclei, normalised, entry "CS(=O)(=O)N1CCN(Cc2cc3nc(-c4cccc5[nH]ncc45)nc(N4CCOCC4)c3s2)CC1" : -0.297

Form field p53-positive nuclei, normalised, entry "OCc1c[nH]c2ccccc12" : 0.33

====

Here the recorded nuclei count, normalised is given for each entry.
Experiment: nuclear p53 accumulation, HPV+ cells – imaging, p53-positive nuclei imaging, 24 h, 48 h (AID 1508601)
Details: 24/48 h, measured here: cell number at 48 h, Library stock concentration: 1.67 mM
Among all 5,700 compounds or so, about 85 (1%) were called active. For the sample, actives were picked, then their nearest neighbours and some compounds at random. Peptide text beside a SMILES is read from it. * marks the point of attachment. Cbz = O=C(OCc1ccccc1)*
Express the result in % but write the number alone.

Study these solved cases before continuing.
[
  {
    "Compound": "CC(C)CC(C=O)NC(=O)C(CC(C)C)NC(=O)C(CC(C)C)NC(=O)OCc1ccccc1 (stereo not drawn) (Cbz-Leu-Leu-Leu-aldehyde; configuration not given here)",
    "Result number": 46.9
  },
  {
    "Compound": "O=C1NCCSc2c1sc1ccc(O)cc21",
    "Result number": 113
  },
  {
    "Compound": "COc1cc(OC)c2c(=O)[nH]c(-c3cc(C)c(OCCO)c(C)c3)nc2c1",
    "Result number": 107
  },
  {
    "Compound": "CCCCCCCCc1cccc(NC(=O)C(N)COP(=O)(O)O)c1 (centres undefined)",
    "Result number": 107
  }
]

Form field nuclei count, normalised, entry "C#CCOc1ccc2c(c1)c(-c1ccc(C(C)C)cc1)nc(=O)n2C(C)C" : 97.6

Form field nuclei count, normalised, entry Cc1nc(Nc2n[nH]c3c2CN(C(=O)NC(CN(C)C)c2ccccc2)C3(C)C)c2sccc2n1 (centres undefined) : 72.1

====

Assay: nuclear p53 accumulation, HPV+ cells – imaging, p53-positive nuclei imaging, 24 h, 48 h (AID 1508601)
Conditions: 24/48 h, measured here: cell number at 48 h, Library stock concentration: 1.5 uM
Hit rate of the full screen: of about 5,700 compounds, about 85 (1%) were called active. Shown is part of a subset that was picked to be rich in actives.
Value type: nuclei count, normalised (%)
Express the result in % but write the number alone.

Study these solved cases before continuing.
[
  {
    "Molecule": "N#CSc1cc(SC#N)c(N)nc1N",
    "Endpoint unit": "%",
    "nuclei count, normalised": 111
  },
  {
    "Molecule": "Nc1ccn(C2C=C(CO)C(O)C2O)c(=O)n1 (centres undefined)",
    "Endpoint unit": "%",
    "nuclei count, normalised": 111
  },
  {
    "Molecule": "NC(=O)c1ncn(C2OC(CO)C(O)C2O)c1O (centres undefined)",
    "Endpoint unit": "%",
    "nuclei count, normalised": 107
  }
]

Now for the molecule whose nuclei count, normalised we want.
Form field nuclei count, normalised, entry CC(=O)NC(CSC(=S)NSc1ccc(SNC(=S)SCC(NC(C)=O)C(=O)O)cc1)C(=O)O (centres undefined) : 111

====

Assay: nuclear p53 accumulation, HPV+ cells – imaging, p53-positive nuclei imaging, 24 h, 48 h (AID 1508601)
Conditions: 24/48 h, measured here: cell number at 24 h, Library stock concentration: 3.333 mM
In all, about 5,700 compounds went through this assay and about 85 (1%) were called active. The full list was thinned out, with actives kept by preference.
Value type: nuclei count, normalised (%)
Express the result in % but write the number alone.

[
  {
    "Molecule": "OCC1OC(n2cnc3c2NC=NCC3O)CC1O (centres undefined)",
    "Result number": 122
  },
  {
    "Molecule": "CCCCCCCCCCCCCC=CC(O)C(CO)N(C)C (centres undefined)",
    "Result number": 102
  },
  {
    "Molecule": "Nc1ccn(C2C=C(CO)C(O)C2O)c(=O)n1 (centres undefined)",
    "Result number": 65.6
  },
  {
    "Molecule": "CN(NC(=O)CC(=O)NN(C)C(=S)c1ccccc1)C(=S)c1ccccc1",
    "Result number": 54.8
  },
  {
    "Molecule": "O=C(O)c1ccccc1SC1=NS(=O)(=O)c2ccccc21",
    "Result number": 120
  }
]

Form field nuclei count, normalised, entry CN(C)CCC(CSc1ccccc1)Nc1ccc(S(=O)(=O)NC(=O)c2ccc(N3CCN(Cc4ccccc4-c4ccc(Cl)cc4)CC3)cc2)cc1[N+](=O)[O-] (centres undefined) : 127

Form field nuclei count, normalised, entry "N#CSc1cc(SC#N)c(N)nc1N" : 84.8

Form field nuclei count, normalised, entry OC(c1cc(C(F)(F)F)nc2c(C(F)(F)F)cccc12)[C@H]1CCCCN1 (some centres undefined) : 112

Form field nuclei count, normalised, entry "CCOC(=O)c1sc(NC(=O)c2ccco2)c(SC#N)c1C" : 103

====

Here the recorded nuclei count, normalised is given for each entry.
Test: nuclear p53 accumulation, HPV+ cells – imaging, p53-positive nuclei imaging, 24 h, 48 h (AID 1508601)
Settings: 24/48 h, measured here: cell number at 48 h, Library stock concentration: 3.33 mM
Screen size: about 5,700 compounds; about 85 (1%) were called active. The sample holds actives, similar compounds and a random draw of the others, so the mix is not that of the screen.
Express the result in % but write the number alone.

Study these solved cases before continuing.
[
  {
    "Compound": "CN(C)c1ccc(C(=O)NCCCCCCC(=O)NO)cc1",
    "nuclei count, normalised, %": 44.8
  },
  {
    "Compound": "CS(=O)(=O)c1cccc(CNc2nc(Nc3ccc4c(c3)CCC(=O)N4)ncc2C(F)(F)F)c1",
    "nuclei count, normalised, %": 76.2
  },
  {
    "Compound": "CCCC(C)NC(=O)c1ccc(Cl)c(Cl)c1 (stereo unspecified)",
    "nuclei count, normalised, %": 114
  },
  {
    "Compound": "CCC(CC)(NC(=O)C(C)C)C(=O)NC(CCCN=C(N)N)C(=O)NC1(C(=O)NC(c2ccc(F)cc2)c2ccc(F)cc2)CCCC1 (stereo unspecified)",
    "nuclei count, normalised, %": 102
  }
]

Form field nuclei count, normalised, entry "OCc1c[nH]c2ccccc12" : 105

Form field nuclei count, normalised, entry CC(C)CC(NC(=O)CNC(=O)c1cc(Cl)ccc1Cl)B(O)O (stereo unspecified) : 43.3

====

Here the recorded p53-positive nuclei, normalised is given for each entry.
Biological target: Cellular tumor antigen p53 (Homo sapiens) (UniProt P04637)
Sequence (P04637 whole entry, looked up): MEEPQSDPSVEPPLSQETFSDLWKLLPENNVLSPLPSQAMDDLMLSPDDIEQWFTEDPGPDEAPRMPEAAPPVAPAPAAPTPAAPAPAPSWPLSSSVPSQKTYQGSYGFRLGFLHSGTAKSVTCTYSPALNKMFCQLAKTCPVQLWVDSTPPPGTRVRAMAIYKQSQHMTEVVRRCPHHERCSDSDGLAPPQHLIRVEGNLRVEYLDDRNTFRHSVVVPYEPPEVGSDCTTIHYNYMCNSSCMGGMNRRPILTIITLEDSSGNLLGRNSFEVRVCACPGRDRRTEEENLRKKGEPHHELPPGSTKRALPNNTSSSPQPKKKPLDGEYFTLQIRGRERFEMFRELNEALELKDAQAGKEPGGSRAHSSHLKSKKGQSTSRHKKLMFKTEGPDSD
Test: nuclear p53 accumulation, HPV+ cells – imaging, p53-positive nuclei imaging, 24 h, 48 h (AID 1508601)
Conditions: 24/48 h, measured here: p53 positive nuclei at 24 h, Library stock concentration: 3.33 mM, stronger effect = higher value
Among all 5,700 compounds or so, about 85 (1%) were called active. The list comes from a sample in which actives are over-represented; it also holds close analogues and randomly drawn compounds.
Express the result in % but write the number alone.

[
  {
    "Molecule": "O=C1CN2Cc3c(ccc(Cl)c3Cl)N=C2N1",
    "p53-positive nuclei, normalised (%)": 11
  }
]

Form field p53-positive nuclei, normalised, entry COC1=C2CC(C)CC(OC)C(O)C(C)C=C(C)C(OC(N)=O)C(OC)C=CC=C(C)C(=O)NC(=CC1=O)C2=O (centres undefined) : -0.356

Form field p53-positive nuclei, normalised, entry CC(C)CC(NC(=O)C(Cc1ccccc1)NC(=O)c1cnccn1)B(O)O (centres undefined) : 125

Form field p53-positive nuclei, normalised, entry CCCC(C)NC(=O)c1ccc(Cl)c(Cl)c1 (centres undefined) : -0.344
